Just for reference, the supplement of paper PMC9170038 is where these values come from.

Here the recorded apparent KD of MS2 coat protein is given for each entry.
Tested on: MS2 coat protein
procedure.text: apparent KD of MS2 coat protein; designed switch direction (-1 OFF switch, 1 ON switch): -1; higher = weaker reporter binding
particulars: input ligand: FMN 200 uM
The reply should read as a number followed by its unit.

Answered examples (4):
- seq: "GGCAAACAUGAGGAUCACCCAUGUCAGGAUAUUAGGCGAUCGUCGAUAGACGAUAGCCUGAGAAGGGACAUGCC [Mat - Exclusion 1 - Eli Mod - D16] (Eterna round: R97, puzzle: Exclusion 1)"
  apparent KD of MS2 coat protein: "391 nM"
- seq: "GAGUAGUAAGGAUAUGUCUCUGGUGGCUUCGGUCACUAGAGGCAGAAGGUACAUGAGGAUCACCCAUGUUCCUC [ExDelusion 7 - Jieux - Exclusion 4] (Eterna round: R97, puzzle: Exclusion 4)"
  apparent KD of MS2 coat protein: "220 nM"
- seq: "GAACCAUGAGGAUAUUCUGAUCCUUACAUGAGGAUCACCCAUGUGAGUACAAAAGUACUCGAAGAAGGCAUGGUUC [Omei Ex5 B1] (Eterna round: R97, puzzle: Exclusion 5)"
  apparent KD of MS2 coat protein: "616 nM"
- seq: "CGUCAGUGAGGAUAUGGUAACGUUUACAUGAGGAUCACCCAUGUUUCAUGGGACUAGAGACUAGAAGGUACUGACG [EX5 #42] (Eterna round: R97, puzzle: Exclusion 5)"
  apparent KD of MS2 coat protein: "189 nM"

Now take the following sequence into account.
sequence AGUACUAUCACGAAAGUGAUAGUACAAUGAGCUUUUGAAACAUGAGGAUCACCCAUGUCCUCAUAAGCUCGUCUUAU [JL turnoff v2 52] (Eterna round: R96, puzzle: Sensor v2, turn-off variant 2) , apparent KD of MS2 coat protein observed: 17.4 nM
